Assay: physchem
MEASUREMENT NAME: solubility

In: Item CC[C@H](C)[C@H](NC(=O)[C@H](N)Cc1ccc(O)cc1)C(=O)N[C@H]1CSSC[C@@H](C(=O)N(C)[C@H](C(N)=O)[C@@H](C)CC)NC(=O)[C@H](CCCNC(=N)N)NC(=O)[C@H](Cc2c[nH]cn2)NC(=O)[C@H](C)NC(=O)CN(C)C(=O)[C@H](Cc2c[nH]c3ccccc23)NC(=O)[C@H](CC(=O)O)NC(=O)[C@H](CCC(N)=O)NC(=O)[C@H](Cc2cn(C)c3ccccc23)NC(=O)[C@H](C(C)C)NC1=O [peptide 14] : provide solubility
Out: > 50 mg/mL

---

Target: C3b (Homo sapiens)
Construct: Biotinylated C3b was captured site-specifically on a streptavidin chip
Sequence (P01024 23-667 limits assumed): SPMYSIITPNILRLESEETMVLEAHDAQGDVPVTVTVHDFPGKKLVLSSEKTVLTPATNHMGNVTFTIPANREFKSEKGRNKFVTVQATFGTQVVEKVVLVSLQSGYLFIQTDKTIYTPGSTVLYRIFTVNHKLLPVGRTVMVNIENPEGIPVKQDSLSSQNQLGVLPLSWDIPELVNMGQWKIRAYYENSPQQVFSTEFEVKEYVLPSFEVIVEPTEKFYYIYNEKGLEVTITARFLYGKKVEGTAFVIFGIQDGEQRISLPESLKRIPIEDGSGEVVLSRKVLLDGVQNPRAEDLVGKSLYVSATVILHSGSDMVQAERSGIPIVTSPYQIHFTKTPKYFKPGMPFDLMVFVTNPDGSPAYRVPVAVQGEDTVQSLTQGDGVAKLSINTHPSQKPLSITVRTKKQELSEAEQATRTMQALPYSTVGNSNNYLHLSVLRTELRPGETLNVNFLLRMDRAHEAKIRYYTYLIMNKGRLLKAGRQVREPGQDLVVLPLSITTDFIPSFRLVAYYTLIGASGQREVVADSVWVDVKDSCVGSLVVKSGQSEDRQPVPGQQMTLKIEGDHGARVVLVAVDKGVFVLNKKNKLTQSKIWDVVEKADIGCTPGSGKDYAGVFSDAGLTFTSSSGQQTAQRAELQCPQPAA
Sequence (P01024 749-1663 partner limits assumed): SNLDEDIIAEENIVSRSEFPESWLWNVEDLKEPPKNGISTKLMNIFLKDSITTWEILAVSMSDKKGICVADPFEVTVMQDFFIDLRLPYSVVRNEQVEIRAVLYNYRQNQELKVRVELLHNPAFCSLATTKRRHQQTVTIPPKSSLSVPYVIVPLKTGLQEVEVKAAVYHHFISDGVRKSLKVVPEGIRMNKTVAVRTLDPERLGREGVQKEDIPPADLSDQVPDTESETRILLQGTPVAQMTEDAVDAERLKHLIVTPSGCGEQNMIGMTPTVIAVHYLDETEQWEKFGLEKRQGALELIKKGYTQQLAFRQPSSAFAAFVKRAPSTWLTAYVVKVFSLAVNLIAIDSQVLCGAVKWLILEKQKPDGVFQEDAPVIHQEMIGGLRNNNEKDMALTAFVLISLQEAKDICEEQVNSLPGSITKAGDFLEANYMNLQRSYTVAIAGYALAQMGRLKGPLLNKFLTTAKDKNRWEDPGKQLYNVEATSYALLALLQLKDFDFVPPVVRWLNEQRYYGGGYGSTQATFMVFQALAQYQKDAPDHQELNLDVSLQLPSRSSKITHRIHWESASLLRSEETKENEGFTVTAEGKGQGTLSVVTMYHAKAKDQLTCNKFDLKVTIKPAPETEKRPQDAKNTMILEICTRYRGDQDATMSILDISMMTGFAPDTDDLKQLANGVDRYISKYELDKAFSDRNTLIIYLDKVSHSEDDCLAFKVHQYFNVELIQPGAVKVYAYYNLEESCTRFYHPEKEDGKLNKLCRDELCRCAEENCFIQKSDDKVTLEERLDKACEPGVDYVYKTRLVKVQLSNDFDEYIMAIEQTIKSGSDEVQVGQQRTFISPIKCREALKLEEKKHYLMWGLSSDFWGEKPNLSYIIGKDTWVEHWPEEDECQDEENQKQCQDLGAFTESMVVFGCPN
Assay: SPR kinetic analysis of binding to immobilized C3b (Biacore, single cycle kinetics)
Conditions: Table 1, N-terminal analogs
Bridge positions count the residues as written; N and C are the ends. Square brackets hold non-standard residues; d marks the D form. Peptide text beside a SMILES is read from it. Trp(1-Me) = Cn1cc(C[C@H](N)C(=O)O)c2ccccc21; NMeI = CC[C@H](C)[C@H](NC)C(=O)O; Sar = CNCC(=O)O
We begin with a simple list: items and their reported ka: association rate.

{"COMPOUND": "CC[C@H](C)[C@H](NC(=O)[C@@H](N)Cc1ccc(O)cc1)C(=O)N[C@H]1CSSC[C@@H](C(=O)N(C)[C@H](C(N)=O)[C@@H](C)CC)NC(=O)[C@H](CCCNC(=N)N)NC(=O)[C@H](Cc2c[nH]cn2)NC(=O)[C@H](C)NC(=O)CN(C)C(=O)[C@H](Cc2c[nH]c3ccccc23)NC(=O)[C@H](CC(=O)O)NC(=O)[C@H](CCC(N)=O)NC(=O)[C@H](Cc2cn(C)c3ccccc23)NC(=O)[C@H](C(C)C)NC1=O [peptide 4]", "MEASUREMENT NAME": "ka: association rate", "VALUE": "2.1 ± 0.3 10^6/Ms"}
{"COMPOUND": "CC[C@H](C)[C@H](NC(=O)[C@H](N)CC1CCCCC1)C(=O)N[C@H]1CSSC[C@@H](C(=O)N(C)[C@H](C(N)=O)[C@@H](C)CC)NC(=O)[C@H](CCCNC(=N)N)NC(=O)[C@H](Cc2c[nH]cn2)NC(=O)[C@H](C)NC(=O)CN(C)C(=O)[C@H](Cc2c[nH]c3ccccc23)NC(=O)[C@H](CC(=O)O)NC(=O)[C@H](CCC(N)=O)NC(=O)[C@H](Cc2cn(C)c3ccccc23)NC(=O)[C@H](C(C)C)NC1=O", "MEASUREMENT NAME": "ka: association rate", "VALUE": "1.8 ± 0.5 10^6/Ms"}
{"COMPOUND": "CC[C@H](C)[C@@H](C(N)=O)N(C)C(=O)[C@@H]1CSSC[C@H](NC(=O)CNC(=O)[C@@H](N)Cc2ccc(O)cc2)C(=O)N[C@@H](C(C)C)C(=O)N[C@@H](Cc2cn(C)c3ccccc23)C(=O)N[C@@H](CCC(N)=O)C(=O)N[C@@H](CC(=O)O)C(=O)N[C@@H](Cc2c[nH]c3ccccc23)C(=O)N(C)CC(=O)N[C@@H](C)C(=O)N[C@@H](Cc2c[nH]cn2)C(=O)N[C@@H](CCCNC(=N)N)C(=O)N1 [peptide 20] (H-YGCV[Trp(1-Me)]QDW[Sar]AHRC[NMeI]-NH2; disulfide 3-13)", "MEASUREMENT NAME": "ka: association rate", "VALUE": "2.1 ± 0.3 10^6/Ms"}

In: Item CC[C@H](C)[C@H](NC)C(=O)N[C@H]1CSSC[C@@H](C(=O)N(C)[C@H](C(N)=O)[C@@H](C)CC)NC(=O)[C@H](CCCNC(=N)N)NC(=O)[C@H](Cc2c[nH]cn2)NC(=O)[C@H](C)NC(=O)CN(C)C(=O)[C@H](Cc2c[nH]c3ccccc23)NC(=O)[C@H](CC(=O)O)NC(=O)[C@H](CCC(N)=O)NC(=O)[C@H](Cc2cn(C)c3ccccc23)NC(=O)[C@H](C(C)C)NC1=O [peptide 1] : provide ka: association rate
Out: 1.3 ± 0.3 10^6/Ms

In: Item CC[C@H](C)[C@H](NC(=O)[C@@H](C)N)C(=O)N[C@H]1CSSC[C@@H](C(=O)N(C)[C@H](C(N)=O)[C@@H](C)CC)NC(=O)[C@H](CCCNC(=N)N)NC(=O)[C@H](Cc2c[nH]cn2)NC(=O)[C@H](C)NC(=O)CN(C)C(=O)[C@H](Cc2c[nH]c3ccccc23)NC(=O)[C@H](CC(=O)O)NC(=O)[C@H](CCC(N)=O)NC(=O)[C@H](Cc2cn(C)c3ccccc23)NC(=O)[C@H](C(C)C)NC1=O : provide ka: association rate
Out: 1.4 ± 0.3 10^6/Ms
